# experimental.system: T1, Epidermal growth factor receptor (EGFR), human, on cells (human, UniProt P00533 25-1210)
# T1 construct: whole, on cells; The expression level differs between cell lines (HT29 > SW480 > SW620); It is reduced in HT29 cells transfected with siEGFR
# run.description: apparent dissociation constant, flow cytometry on HT29 cells, 0-200 nM peptide, 4° C., R^2=0.95
Where no end group is shown, it is not given here. Cy5.5 = Cy5.5 fluorophore
metric: pKd
One number for each entry, as −log10 of the molar value.

query: Given QRHKPREGGGSK(Cy5.5)-NH2 (also called EGFR peptide) [QRH*-Cy5.5 (QRHKPRE peptide with GGGSK linker and Cy5.5 fluorophore)] , state its recorded pKd.
result: 7.30
